Collected IC50 values appear next to each entry.
target: Urease subunit alpha/Urease subunit beta (Helicobacter pylori (strain ATCC 700392 / 26695) (Campylobacterpylori), UniProt P69996); assay: Inhibition of urease in Helicobacter pylori ATCC 43504 intact cell assessed as ammonia production preincubated for 1.5 hrs by indophenol-based method
Sequence (P69996 whole entry): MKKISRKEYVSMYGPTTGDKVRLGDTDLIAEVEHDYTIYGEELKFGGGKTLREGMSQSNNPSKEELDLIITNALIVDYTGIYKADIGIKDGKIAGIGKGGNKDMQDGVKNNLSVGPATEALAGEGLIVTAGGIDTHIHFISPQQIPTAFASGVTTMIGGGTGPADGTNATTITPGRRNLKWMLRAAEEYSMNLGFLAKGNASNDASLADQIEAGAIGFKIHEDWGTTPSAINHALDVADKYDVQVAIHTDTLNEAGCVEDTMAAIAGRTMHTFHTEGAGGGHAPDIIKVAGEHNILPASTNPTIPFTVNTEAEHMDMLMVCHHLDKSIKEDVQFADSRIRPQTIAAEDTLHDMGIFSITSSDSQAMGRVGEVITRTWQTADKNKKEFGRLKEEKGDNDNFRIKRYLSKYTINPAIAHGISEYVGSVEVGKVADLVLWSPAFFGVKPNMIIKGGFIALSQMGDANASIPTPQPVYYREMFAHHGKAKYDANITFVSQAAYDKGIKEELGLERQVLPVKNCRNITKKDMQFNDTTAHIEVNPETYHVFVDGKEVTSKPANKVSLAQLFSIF
Sequence (P14916 whole entry, further chain): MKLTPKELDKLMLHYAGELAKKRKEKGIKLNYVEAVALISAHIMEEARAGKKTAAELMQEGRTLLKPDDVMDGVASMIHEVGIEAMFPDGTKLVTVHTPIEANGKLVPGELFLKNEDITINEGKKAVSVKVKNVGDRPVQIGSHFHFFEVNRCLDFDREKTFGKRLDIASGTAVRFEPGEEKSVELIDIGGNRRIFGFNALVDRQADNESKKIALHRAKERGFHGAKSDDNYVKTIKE
readout-type: IC50 (µM)

>>> reported_measurement("CC(=O)NO [ACETOHYDROXAMIC ACID]")
110
>>> reported_measurement("O=C(CC(O)c1ccccc1Cl)NO (racemic)")
9.21
>>> reported_measurement("O=C(CC(O)c1cccc(Cl)c1)NO (racemic)")
0.36
>>> reported_measurement("O=C(CC(O)c1cccc(Cl)c1Cl)NO (racemic)")
0.91
>>> reported_measurement("O=C(CC(O)c1cc(Cl)ccc1O)NO (racemic)")
11.3
>>> reported_measurement("O=C(CC(O)c1cccc(C(F)(F)F)c1)NO (racemic)")
6.81
>>> reported_measurement("O=C(CC(O)c1cccc(F)c1)NO (racemic)")
13.3
>>> reported_measurement("O=C(CC(O)c1cc(Cl)cc(Cl)c1O)NO (racemic)")
8.9
>>> reported_measurement("O=C(CC(O)c1ccc(Cl)c(Cl)c1)NO (racemic)")
1.42

---

molecular target: Urease subunit alpha/Urease subunit beta (Helicobacter pylori (strain ATCC 700392 / 26695) (Campylobacterpylori), UniProt P69996); test: Inhibition of urease extracted from Helicobacter pylori ATCC 43504 assessed as ammonia production preincubated for 1.5 hrs by indophenol-based method
Labelling field: enter 1 if recorded IC50 is less than 60 µM. Enter 0 if it equals or exceeds that cut-off.

>>> classification("O=C(CC(O)c1ccccc1Cl)NO (racemic)")
1
>>> classification("COc1ccc(C(O)CC(=O)NO)cc1 (racemic)")
0
>>> classification("O=C(CC(O)c1ccccc1)NO (racemic)")
1
>>> classification("COc1ccc(F)cc1C(O)CC(=O)NO (racemic)")
1
>>> classification("O=C(CC(O)c1ccc(Cl)c(Cl)c1)NO (racemic)")
1
>>> classification("O=C(CC(O)c1cccc(O)c1)NO (racemic)")
0
>>> classification("O=C(CC(O)c1ccc(F)cc1)NO (racemic)")
1
>>> classification("CC(=O)NO [ACETOHYDROXAMIC ACID]")
1
>>> classification("CN(C)c1ccc(C(=O)NO)cc1")
0

---

biological target: Urease subunit alpha/Urease subunit beta (Helicobacter pylori (strain ATCC 700392 / 26695) (Campylobacterpylori)) (UniProt P69996+P14916); experiment: Ratio of IC50 for urease in Helicobacter pylori ATCC 43504 intact cell to IC50 for urease extracted from Helicobacter pylori ATCC 43504
Sequence (P14916 whole entry, looked up): as the sequence (P14916 whole entry, further chain) above
Sequence (P69996 whole entry, looked up): as the sequence (P69996 whole entry) above
// values below are reported Ratio IC50
readout-type: Ratio IC50

>>> reported_measurement("O=C(CC(O)c1cccc(C(F)(F)F)c1)NO (racemic)")
3
>>> reported_measurement("O=C(CC(O)c1ccc(Cl)c(Cl)c1)NO (racemic)")
3
>>> reported_measurement("O=C(CC(O)c1cc(Cl)cc(Cl)c1O)NO (racemic)")
3
>>> reported_measurement("O=C(CC(O)c1ccccc1Cl)NO (racemic)")
3
>>> reported_measurement("O=C(CC(O)c1cccc(Cl)c1Cl)NO (racemic)")
4
>>> reported_measurement("O=C(CC(O)c1cc(Cl)ccc1O)NO (racemic)")
8.8
>>> reported_measurement("O=C(CC(O)c1cccc(F)c1)NO (racemic)")
3

This collection of values is drawn from ChEMBL document CHEMBL2424553.
